- System: RSV Long strain
- PROTOCOL: Viral cytopathic effect (CPE) assay, anti-RSV activity
- Type: cell-based, Respiratory Syncytial Virus
- TEST SETTINGS: human respiratory syncytial virus, 144 h, RSV Long strain (ATCC); cell viability after 6 days, Cell Counting kit-8
Counter-ions that a name gives are not always drawn.
Labelling field: enter true (1) if recorded EC50 is less than 0.03 µM. Enter false (0) if it equals or exceeds that cut-off.

Task item: hey, is EC50 for NC1(CNc2cc(N3CC[S+]([O-])c4ccccc4C3)nc3ccc(Cl)cc23)COC1 (centres unmarked) lower than 0.03 µM or not?
Reply: false (0)

Task item: How about Cc1ccc2nc(N3CCC(F)(F)c4ccccc4C3)nc(NCC3(CN)CSC3)c2c1 ?
Reply: false (0)

Task item: How about Cc1ccc2nc(N3CCC(C)(O)c4ccccc4C3)nc(NCC3(N)COC3)c2c1 (centres unmarked) ?
Reply: true (1)

Task item: How about Cc1ccc2nc(N3CCS(=O)(=O)c4ccccc4C3)cc(NCC(C)(C)CN)c2c1 ?
Reply: true (1)

Task item: How about Cc1ccc2nc(N3CCS(=O)(=O)c4ccccc4C3)cc(NC(=O)[C@@H]3CCCN3)c2c1 ?
Reply: false (0)

Task item: How about Cc1ccc2nc(N3CCS(=O)(=O)c4ccccc4C3)cc(NC(=O)C3CCN3)c2c1 (centres unmarked) ?
Reply: false (0)

Task item: How about Cc1ccc2nc(N3CCS(=O)(=O)c4ccccc4C3)cc(NCC(F)(F)C(F)(F)CN)c2c1 ?
Reply: false (0)

Task item: How about NC1=NCC(CNc2cc(N3CCCc4ccccc4C3)nc3ccc(Cl)cc23)O1 (centres unmarked) ?
Reply: false (0)

Task item: How about Cc1ccc2nc(N3CCS(=O)(=O)c4ccccc4C3)nc(N[C@@H]3CNC[C@H]3F)c2c1 (relative stereo) ?
Reply: true (1)

Task item: How about Cc1ccc2nc(N3CCS(=O)(=O)c4ccccc4C3)cc(N3CCCNCC3)c2c1 ?
Reply: false (0)

Task item: How about NCCCNc1cc(N2CCS(=O)(=O)c3ccccc3C2)nc2ccc(C(F)F)cc12 ?
Reply: true (1)

Task item: How about NC1(CNc2nc(N3CC[S+]([O-])c4ccccc4C3)nc3ccc(Cl)cc23)COC1 (centres unmarked) ?
Reply: true (1)

Task item: How about Cc1ccc2nc(N3CCS(=O)(=O)c4ccccc4C3)cc(NCC3CCCN3)c2c1 (centres unmarked) ?
Reply: true (1)

Task item: How about Cc1ccc2nc(N3CCS(=O)(=O)c4ccccc4C3)cc(OC3CCNCC3)c2c1 ?
Reply: false (0)

Task item: How about NCC1(CNc2cc(N3CCS(=O)(=O)c4ccccc4C3)nc3ccccc23)COC1 ?
Reply: true (1)

Task item: How about Cc1ccc2nc(N3CCC(F)(F)c4ccccc4C3)cc(NCCN(C)C)c2c1 ?
Reply: false (0)

Task item: How about Cc1ccc2nc(N3CCC(F)(F)c4ccccc4C3)cc(N3CCC(N)C3)c2c1 (centres unmarked) ?
Reply: false (0)

Task item: How about Cc1ccc2nc(N3CCS(=O)(=O)c4ccccc4C3)cc(NS(=O)(=O)C(F)(F)F)c2c1 [Example 3-57, hydrochloride] ?
Reply: false (0)

Task item: How about Cc1ccc2c(c1)S(=O)(=O)CCN(c1cc(NCC3(CN)COC3)c3cc(C)ccc3n1)C2 ?
Reply: true (1)

Task item: How about OCc1cc(N2CCCc3ccccc3C2)nc2ccccc12 ?
Reply: false (0)

Task item: How about Cc1ccc2nc(N3CCS(=O)(=O)c4ccccc4C3)cc(N3CCC(N)C3)c2c1 (centres unmarked) ?
Reply: true (1)

Task item: How about Cc1ccc2nc(N3CCS(=O)(=O)c4ccccc4C3)cc(NCC(=O)O)c2c1 ?
Reply: false (0)

Task item: How about CSc1ccc2nc(N3CCS(=O)(=O)c4ccccc4C3)cc(NCCCN)c2c1 ?
Reply: false (0)

Task item: How about Cc1ccc2nc(N3CCS(=O)(=O)c4ccccc4C3)cc(NCC(C)(O)CN)c2c1 (centres unmarked) ?
Reply: true (1)

Task item: How about NCCNS(=O)(=O)c1cc(N2CCCc3ccccc3C2)nc2ccccc12 [Example 132, trifluoroacetate] ?
Reply: false (0)

Task item: How about NCCNc1cc(N2CCCc3ccccc3C2)nc2ccc(OC(F)F)cc12 ?
Reply: false (0)

Task item: How about COc1ccc2c(c1)CN(c1cc(NCC3(CN)COC3)c3cc(C)ccc3n1)CCS2(=O)=O ?
Reply: true (1)

Task item: How about NCCNc1cc(N2CCS(=O)(=O)c3ccccc3C2)nc2ccc([N+](=O)[O-])cc12 ?
Reply: false (0)

Task item: How about Cc1ccc2nc(N3CCS(=O)(=O)c4ccccc4C3)cc(NC(=O)C3CNC(=O)C3)c2c1 (centres unmarked) ?
Reply: false (0)

Task item: How about Cc1ccc2nc(N3CCS(=O)(=O)c4ccccc4C3)nc(NCC(O)CO)c2c1 (centres unmarked) ?
Reply: false (0)

Task item: How about CCS(=O)(=O)c1ccc2c(c1)CCCN(c1cc(NCCN)c3ccccc3n1)C2 ?
Reply: false (0)

Task item: How about Cc1ccc2nc(N3CCS(=O)(=O)c4ccc(N5CCOCC5)cc4C3)cc(NCC3(N)COC3)c2c1 ?
Reply: false (0)

====

- System: RSV Long strain
- PROTOCOL: Viral cytopathic effect (CPE) assay, anti-RSV activity
- Format: cell-based, Respiratory Syncytial Virus
- TEST SETTINGS: human respiratory syncytial virus, 144 h, RSV Long strain (ATCC); cell viability after 6 days, Cell Counting kit-8
Please provide measured EC50 for the entries that follow.
Write the answer as a number in µM, unit excluded.

Task item: Recall the recorded EC50 for CCc1ccc2nc(N3CCS(=O)(=O)c4ccccc4C3)cc(NCCN)c2c1 [Example 9-10] with RSV Long strain and state it.
Reply: 0.037

Task item: How about NCCNc1cc(N2CCSc3ccccc3C2)nc2ccc(Cl)cc12 [Example 4-2] ?
Reply: 0.098

Task item: How about CCNc1cc(N2CCS(=O)(=O)c3ccccc3C2)nc2ccc(Cl)cc12 [Example 9-30] ?
Reply: 8.59

Task item: How about CC(=O)Nc1cc(N2CCS(=O)(=O)c3ccccc3C2)nc2ccc(C)cc12 [Example 3-60] ?
Reply: 0.617

Task item: How about Cc1ccc2nc(N3CCS(=O)(=O)c4ccccc4C3)cc(NCCO)c2c1 [Example 3-38] ?
Reply: 0.0439

Task item: How about Cc1ccc2nc(N3CCS(=O)(=O)c4ccccc4C3)cc(OCCN)c2c1 [Example 97] ?
Reply: 0.177

Task item: How about Cc1ccc2nc(N3CC[S+]([O-])c4ccccc4C3)cc(N3C[C@@H](N)[C@H](O)C3)c2c1 (relative stereo) [Example 19-1] ?
Reply: 0.043

Task item: How about NCC1(CNc2nc(N3CCS(=O)(=O)c4ccccc4C3)nc3ccc(CO)cc23)COC1 [Example 109-2] ?
Reply: 0.0015

Task item: How about Cc1cc2c(NCCO)cc(N3CCS(=O)(=O)c4ccccc4C3)nc2cc1F [Example 9-23] ?
Reply: 3.02

Task item: How about NCCCNc1cc(N2CCS(=O)(=O)c3ccccc3C2)nc2ccc(Br)cc12 [Example 9-34] ?
Reply: 0.024

Task item: How about Cc1ccc2nc(N3CCS(=O)(=O)c4ccccc4C3)cc(Nc3ccc(N)cc3)c2c1 [Example 15-2] ?
Reply: 7.99

Task item: How about Cc1ccc2nc(N3CCS(=O)(=O)c4ccccc4C3)cc(NC3CCCNC3)c2c1 (centres unmarked) [Example 3-40] ?
Reply: 0.022

Task item: How about Cc1ccc2nc(N3CCS(=O)(=O)c4ccccc4C3)cc(NCCc3nn[nH]n3)c2c1 [Example 84] ?
Reply: 2.96

Task item: How about Cc1ccc2nc(N3CCS(=O)(=O)c4ccccc4C3)cc(NCCN)c2c1 [Example 9-16] ?
Reply: 0.005

Task item: How about Cc1ccc2nc(N3CCS(=O)(=O)c4cc(F)ccc4C3)cc(NCC3(CN)COC3)c2c1 [Example 3-1] ?
Reply: 0.006

Task item: How about CC(O)c1ccc2nc(N3CCS(=O)(=O)c4ccccc4C3)cc(NCCCN)c2c1 (centres unmarked) [Example 82] ?
Reply: 0.014

Task item: How about Nc1cc(N2CCS(=O)(=O)c3cc(OCCCO)ccc3C2)nc2ccccc12 [Example 34] ?
Reply: 2.09

====

Please provide measured EC50 for the entries that follow.
- System: RSV Long strain
- PROTOCOL: Viral cytopathic effect (CPE) assay, anti-RSV activity
- Format: cell-based, Respiratory Syncytial Virus
- TEST SETTINGS: human respiratory syncytial virus, 144 h, RSV Long strain (ATCC); cell viability after 6 days, Cell Counting kit-8
Write the answer as a number in µM, unit excluded.

Task item: So what's the measured EC50 for this one? Cc1ccc2nc(N3CCS(=O)(=O)c4ccccc4C3)cc(N[C@H]3CC[C@@H](N)CC3)c2c1
Reply: 0.024

Task item: How about CC(=O)NCCNc1cc(N2CCS(=O)(=O)c3ccccc3C2)nc2ccc(C)cc12 ?
Reply: 3.13

Task item: How about Cc1ccc2nc(N3CCS(=O)(=O)c4ccccc4C3)cc(NC[C@@H](O)CO)c2c1 ?
Reply: 0.054

Task item: How about Cc1ccc2nc(N3CCS(=O)(=O)c4ccccc4C3)nc(N)c2c1 ?
Reply: 0.746
